- experimental-target: T1, human DKK1 (human, UniProt O94907 32-266)
- T1 construct: also called huDKK1; hDKK1
- T1 sequence: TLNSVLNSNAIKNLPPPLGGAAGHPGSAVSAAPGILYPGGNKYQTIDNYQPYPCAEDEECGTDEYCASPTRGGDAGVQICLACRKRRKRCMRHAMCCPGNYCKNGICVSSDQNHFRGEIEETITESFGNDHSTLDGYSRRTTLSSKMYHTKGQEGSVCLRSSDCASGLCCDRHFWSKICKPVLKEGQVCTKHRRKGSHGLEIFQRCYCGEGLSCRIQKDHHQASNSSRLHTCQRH
- assay-name: BiaCore 2000
measurement-type: koff (s⁻¹)
Report as a plain number; the unit s⁻¹ is understood.

* 5.65.1 (antibody, V domains shown, Fully human hybridoma IgG, lambda (Vl)) VH: EVQLLESGGGLVQPGGSLRLSCAASGFTSGNYAMSWVRQAPGKGLEWVSAISGGGGTTYYADSVEGRFTISRDNSKNTLYLQLNSLRAEDTAVYYCAKEFGELEPRFDYWGQGTLVTVSS VL: SYVLTQPPSVSVAPGQTARITCGGNNIGSKSVHWYQQKPGQAPVLVVYDDSDRPSGIPERFSGSNSGNTATLTISRVEAGDEADYYCQVLDSSSDHVIFGGGTKLTVL | 0.000525
* 5.31.1 (antibody, V domains shown, Fully human hybridoma IgG, kappa (Vk)) VH: QVQLVESGGGVVQPGRSLRLSCAASGFTFSSYGMHWVRQAPGKGLEWVAVIWYDGRNKYYADSVKGRFTISRDNSKNTLYLQMNSLRAEDTAVYYCARGGGAVADYNYYYGMDVWGQGTTVTVSS VL: DIQVTQSPSSLSASVGDRVTITCQASQDISNYLNWYQQKPGKAPKFLIYDASNLEAGVPSRFSGSGSGTDFTFTISSLQPEDIATYYCQQYDNLPLTFGGGTKVEIK | 0.000105

// moving on: another record for koff
Quick check: koff of 6.37.5 (antibody, V domains shown, Fully human IgG, kappa (Vk)) VH: QVQLVESGGGVVQPGRSLRLSCAASGFTFSGYGMHWVRQAPGKGLEWVAVISYDGNDKYYADSVKGRFTISRDNAKNTLYLQMNSLRAEDTAVYYCARELRVLWGQGTLVTVSS VL: DIVMTQTPLSLSVTPGQPASISCKSGQSLLHSDGKTYLYWYLQKPGQPPQFLIYEVSNRFSRVPDRFSGSGSGTDFTLRISRVEAEDVGIYYCMQSIQLPWTFGQGTQVEIK ?
4e-05
